Molecular target: human TLR2 (Homo sapiens, UniProt O60603+Q15399)
Sequence (O60603 21-784): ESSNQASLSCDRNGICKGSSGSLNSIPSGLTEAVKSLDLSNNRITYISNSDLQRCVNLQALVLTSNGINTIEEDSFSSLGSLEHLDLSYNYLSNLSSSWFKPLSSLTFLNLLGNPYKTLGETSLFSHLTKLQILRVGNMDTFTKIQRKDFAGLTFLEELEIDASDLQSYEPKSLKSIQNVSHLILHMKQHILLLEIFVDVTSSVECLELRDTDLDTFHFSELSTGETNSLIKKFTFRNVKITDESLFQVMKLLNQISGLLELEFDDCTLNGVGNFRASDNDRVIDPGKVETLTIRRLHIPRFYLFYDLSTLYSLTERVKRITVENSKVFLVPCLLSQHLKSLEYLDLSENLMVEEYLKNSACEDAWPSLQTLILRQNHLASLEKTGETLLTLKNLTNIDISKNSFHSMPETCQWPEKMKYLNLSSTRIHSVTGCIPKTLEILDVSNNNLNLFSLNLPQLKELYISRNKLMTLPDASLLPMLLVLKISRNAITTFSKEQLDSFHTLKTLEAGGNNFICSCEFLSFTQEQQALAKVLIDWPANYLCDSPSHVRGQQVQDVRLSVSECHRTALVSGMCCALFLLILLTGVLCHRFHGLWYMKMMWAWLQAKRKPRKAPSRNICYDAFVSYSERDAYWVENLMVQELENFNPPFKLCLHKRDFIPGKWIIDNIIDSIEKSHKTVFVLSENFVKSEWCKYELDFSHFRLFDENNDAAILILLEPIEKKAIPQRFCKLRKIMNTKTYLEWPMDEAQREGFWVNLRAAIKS
Sequence (Q15399 25-786): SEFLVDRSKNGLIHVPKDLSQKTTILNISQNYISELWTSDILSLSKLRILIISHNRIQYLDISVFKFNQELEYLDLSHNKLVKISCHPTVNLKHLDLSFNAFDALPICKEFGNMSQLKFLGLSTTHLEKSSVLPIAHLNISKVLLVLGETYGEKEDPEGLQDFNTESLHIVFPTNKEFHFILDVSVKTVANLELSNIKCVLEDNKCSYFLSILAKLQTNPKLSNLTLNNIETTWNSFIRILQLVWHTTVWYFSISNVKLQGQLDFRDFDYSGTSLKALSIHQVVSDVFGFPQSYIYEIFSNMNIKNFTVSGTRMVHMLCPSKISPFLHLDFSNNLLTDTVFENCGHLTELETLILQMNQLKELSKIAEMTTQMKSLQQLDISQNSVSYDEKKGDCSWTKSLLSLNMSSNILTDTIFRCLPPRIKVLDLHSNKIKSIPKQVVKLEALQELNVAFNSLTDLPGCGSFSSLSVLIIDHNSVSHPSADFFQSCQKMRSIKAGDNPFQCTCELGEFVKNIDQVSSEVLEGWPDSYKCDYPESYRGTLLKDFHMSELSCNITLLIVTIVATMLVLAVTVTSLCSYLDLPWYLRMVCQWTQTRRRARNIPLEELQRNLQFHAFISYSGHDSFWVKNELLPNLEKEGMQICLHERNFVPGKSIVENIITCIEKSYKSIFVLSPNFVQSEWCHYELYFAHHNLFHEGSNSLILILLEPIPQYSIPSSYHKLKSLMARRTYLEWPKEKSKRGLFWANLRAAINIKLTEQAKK
Experiment: SEAP reporter gene detection assay in HEK-Blue hTLR2 cells
pEC50: −log10 of the molar value.
observation-type: pEC50

{"compound": "CNc1ccc([N+](=O)[O-])cc1-n1cnc(-c2ccc(C(F)(F)F)cc2)c1 [CU-T12-9]", "observation-type": "pEC50", "observed": 7.28}
